# Protocol Text: Levels of compound 3 and compound 5 in rabbit nasal lavage and serum after nasal administration of compound 5
# Type: in vivo
# Particulars: female, NZW, rabbit, nasal lavage, other: intranasal (mucosal atomization device); rabbits, 0.2 mL of 10 mM compound 5 per nostril at 2, 4, 6 hours; lavage at 8 hours; range over 3 rabbits; read-out: average concentration of compound 5 in nasal lavage (FIG. 8)
Measured Metric: concentration at 8 h

[in] Quick one: concentration at 8 h for O=C(Nc1ccc(F)cc1Cl)c1nn(COP(=O)(O)O)c(Cl)c1Cl ?
[out] 16 to 350 nM

----------
# Protocol Text: Solubility assessment in water
# Type: physicochemical
# Particulars: water with 2 eq NaHCO3, aqueous buffer, thermodynamic from solid; disodium salt, 2 eq NaHCO3 added; read-out: concentration in water giving a clear solution
Measured Metric: solubility

[in] Quick one: solubility for O=C(Nc1ccc(F)cc1Cl)c1nn(COP(=O)(O)O)c(Cl)c1Cl [compound 5] ?
[out] ≥ 10 mM

----------
# Protocol Text: Solubility assessment in water
# Format: physicochemical
# Particulars: thermodynamic from solid; free phosphoric acid, 4.7 mg fully dissolved in 4.7 ml water; read-out: solubility in water
Measured Metric: solubility (µg/mL)
A number alone suffices; assume µg/mL.

[in] Quick one: solubility for O=C(Nc1ccc(F)cc1Cl)c1nn(COP(=O)(O)O)c(Cl)c1Cl [compound 5] ?
[out] 1000

----------
# Protocol Text: Solubility assessment in water
# Format: physicochemical
# Particulars: water, thermodynamic from solid; free phosphoric acid, at 1 mg/ml, molecular weight 418; read-out: solubility in water, concentration
Measured Metric: solubility (µM)
A number alone suffices; assume µM.

[in] Quick one: solubility for O=C(Nc1ccc(F)cc1Cl)c1nn(COP(=O)(O)O)c(Cl)c1Cl ?
[out] 2400

----------
# System Under Test: human lipoxygenase (ALOX15 Active Human Recombinant Protein) (Homo sapiens, UniProt P16050)
# Sequence (P16050 1-662): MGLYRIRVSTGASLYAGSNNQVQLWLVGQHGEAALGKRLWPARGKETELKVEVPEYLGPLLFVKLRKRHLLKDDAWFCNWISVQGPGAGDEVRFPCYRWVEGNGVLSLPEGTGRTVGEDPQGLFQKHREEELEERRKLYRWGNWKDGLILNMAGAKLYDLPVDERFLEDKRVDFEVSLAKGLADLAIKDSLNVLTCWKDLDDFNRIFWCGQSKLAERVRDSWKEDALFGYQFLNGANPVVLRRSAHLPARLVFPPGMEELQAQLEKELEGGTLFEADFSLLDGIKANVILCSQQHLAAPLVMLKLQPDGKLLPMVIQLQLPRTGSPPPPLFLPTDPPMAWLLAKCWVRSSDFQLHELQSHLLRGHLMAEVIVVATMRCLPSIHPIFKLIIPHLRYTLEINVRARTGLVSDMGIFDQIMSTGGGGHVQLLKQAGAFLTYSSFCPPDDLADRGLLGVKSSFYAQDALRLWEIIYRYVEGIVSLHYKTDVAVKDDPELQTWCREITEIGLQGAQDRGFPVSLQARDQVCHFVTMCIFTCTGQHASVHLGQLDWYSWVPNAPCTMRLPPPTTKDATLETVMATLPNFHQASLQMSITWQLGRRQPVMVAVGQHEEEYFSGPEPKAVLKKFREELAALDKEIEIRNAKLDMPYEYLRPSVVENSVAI
# Protocol Text: Recombinant human ALOX15 assay (DPPP fluorescence)
Measured Metric: IC50 (µM)
A number alone suffices; assume µM.

[in] Quick one: IC50 for O=C(Nc1ccc(F)cc1Cl)c1nn(COP(=O)(O)O)c(Cl)c1Cl [compound 5] ?
[out] 0.032
